target: Sodium-dependent dopamine transporter (Homo sapiens, UniProt Q01959); assay: Displacement of [3H]BTCP from human recombinant dopamine transporter expressed in CHO cells
Sequence (Q01959 whole entry): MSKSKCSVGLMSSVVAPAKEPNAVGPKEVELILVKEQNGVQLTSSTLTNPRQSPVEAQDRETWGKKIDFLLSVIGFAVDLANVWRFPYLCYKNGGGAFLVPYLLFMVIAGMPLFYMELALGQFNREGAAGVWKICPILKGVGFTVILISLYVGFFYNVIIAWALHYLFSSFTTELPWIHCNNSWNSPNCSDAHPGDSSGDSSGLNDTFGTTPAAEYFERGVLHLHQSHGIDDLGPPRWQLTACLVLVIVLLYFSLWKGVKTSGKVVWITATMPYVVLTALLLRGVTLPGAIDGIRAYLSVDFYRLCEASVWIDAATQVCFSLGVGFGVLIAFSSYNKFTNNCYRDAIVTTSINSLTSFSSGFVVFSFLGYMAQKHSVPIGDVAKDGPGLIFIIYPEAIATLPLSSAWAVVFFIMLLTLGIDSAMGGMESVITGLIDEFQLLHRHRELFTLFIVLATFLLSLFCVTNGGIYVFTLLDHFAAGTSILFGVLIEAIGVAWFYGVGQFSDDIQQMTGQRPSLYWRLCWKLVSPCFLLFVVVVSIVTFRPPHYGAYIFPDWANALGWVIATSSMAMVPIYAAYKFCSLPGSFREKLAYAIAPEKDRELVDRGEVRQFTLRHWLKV
QUANTITY: pIC50
To interpret pIC50, take it as minus log10 of a concentration measured in moles per litre.

# pIC50 of `Cc1nnc2sc(C(=O)NC3CN(c4cccc(F)c4F)C3)c(N)c2c1C` = 6.35

* * *

Target: Muscarinic acetylcholine receptor M4 (Homo sapiens)
Sequence (whole entry): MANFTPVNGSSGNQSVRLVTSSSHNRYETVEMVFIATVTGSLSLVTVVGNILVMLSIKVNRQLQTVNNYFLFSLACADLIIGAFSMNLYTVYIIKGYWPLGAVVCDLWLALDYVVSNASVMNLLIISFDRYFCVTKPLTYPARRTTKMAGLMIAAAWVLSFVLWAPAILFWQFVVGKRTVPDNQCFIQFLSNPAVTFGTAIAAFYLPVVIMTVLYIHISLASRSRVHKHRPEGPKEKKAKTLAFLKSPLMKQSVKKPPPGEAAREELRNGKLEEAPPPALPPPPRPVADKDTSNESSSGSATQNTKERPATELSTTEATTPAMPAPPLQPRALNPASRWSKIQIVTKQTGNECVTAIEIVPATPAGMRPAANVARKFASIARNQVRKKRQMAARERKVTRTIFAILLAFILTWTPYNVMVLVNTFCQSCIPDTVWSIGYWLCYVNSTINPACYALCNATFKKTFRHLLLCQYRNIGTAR
Experiment: Positive allosteric modulation of human M4 receptor expressed in CHO cells co-expressing Gqi5 assessed as increase in acetylcholine-induced calcium mobilization relative to acetylcholine
Format: functional, cell-based
Each item that follows carries a reported %max.
The reply should contain only the number, in %.

Cc1nnc2sc(C(=O)NC3CN(c4ccccc4F)C3)c(N)c2c1C; 82
Cc1cccc(OC(=O)N2CC(NC(=O)c3sc4nnc(C)c(C)c4c3N)C2)c1; 85
Cc1nnc2sc(C(=O)NC3CN(c4ccc(C(F)(F)F)nc4)C3)c(N)c2c1C; 75
Cc1nnc2sc(C(=O)NC3CN(c4cccc(F)c4F)C3)c(N)c2c1C; 88
Cc1nnc2sc(C(=O)NC3CN(c4nc5cccnc5s4)C3)c(N)c2c1C; 81
Cc1nnc2sc(C(=O)NC3CN(c4ccc(F)cc4)C3)c(N)c2c1C; 77
COc1cccc(N2CC(NC(=O)c3sc4nnc(C)c(C)c4c3N)C2)c1; 77
COc1ccc(N2CC(NC(=O)c3sc4nnc(C)c(C)c4c3N)C2)cc1; 81

# %max of `Cc1nnc2sc(C(=O)NC3CN(c4ccncc4Cl)C3)c(N)c2c1C` = 86

# %max of `Cc1nnc2sc(C(=O)NC3CN(c4nc5ccccc5s4)C3)c(N)c2c1C` = 87

# %max of `Cc1nnc2sc(C(=O)NC3CN(c4ccnc(Cl)c4)C3)c(N)c2c1C` = 87

# %max of `Cc1nnc2sc(C(=O)NC3CN(C(=O)c4ccccc4)C3)c(N)c2c1C` = 85

# %max of `Cc1nnc2sc(C(=O)NC3CN(C(=O)Oc4ccccc4)C3)c(N)c2c1C` = 96

# %max of `Cc1nnc2sc(C(=O)NC3CN(c4ccccn4)C3)c(N)c2c1C` = 81

# %max of `Cc1nnc2sc(C(=O)NC3CN(c4ccc(F)cc4F)C3)c(N)c2c1C` = 94
